B1: tRNA (parent)
chain: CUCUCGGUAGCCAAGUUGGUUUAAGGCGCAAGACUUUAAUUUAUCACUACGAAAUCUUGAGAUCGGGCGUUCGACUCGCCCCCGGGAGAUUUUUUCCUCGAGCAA

variants of: B1; test: nonsense suppression (GFP-seq) (ratio to wild type); higher = more function; SUP4oc tRNA, yeast GFP reporter sort-seq
This sample holds only a part of the variants without activity.
READOUT TYPE: nonsense suppression

A9U U17C    0.128
U55G A74U    ≤ 0.026
U20A A74U    0.0745
A24U C72G    0.03
C3U U21A    0.196

Documented nonsense suppression of G15A C68U : 0.0272

So, A9U G78A ? Its nonsense suppression was 0.0365

Lab note: measured nonsense suppression of A54C G84U was 0.0301

Sure, the documented nonsense suppression for U22C U63C is 1.2

Entry A13C U21A , nonsense suppression reported as 1.19

Lab book: nonsense suppression of A14U G84A noted as ≤ 0.026

// recorded nonsense suppression for G7A U20G C34U A62C : ≤ 0.026

# nonsense suppression (variant: U22C A24U C29U A30G ) is 0.0731

The variant A24C A60U U63A showed nonsense suppression equal to 0.112
